B1: PDLIM4 (parent)
chain: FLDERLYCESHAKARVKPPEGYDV

variants of: B1; assay: protein stability index of a GFP-peptide fusion (GPS, HEK-293T) (PSI 1-6); higher = more stable; details: c terminus: a fixed tail appended;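 also: lentivirally expressed fusions sorted by FACS into six bins by GFP to DsRed ratio, PSI derived from sequencing read proportions per bin multiplied by bin number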
Here the recorded protein stability index is given for each entry.
Answer with a bare number; do not write a unit.

# count of solved cases: 10
A12D; 2.48
V16W; 2.7
Y22C; 2.75
V16H; 1.92
K17Y; 1.66
E9M; 2.41
H11Y; 2.18
V24T; 1.53
D3P; 2.64
D23H; 3.11

Req: Look up protein stability index: R15Y
Resp: 1.58

Req: // repeat for C8M and report
Resp: 1.64

Req: Next: R5V
Resp: 2.35

Req: Another variant to look at: V16C
Resp: 1.43
